Target: 5-LOX (Homo sapiens)
Sequence (P09917 whole entry): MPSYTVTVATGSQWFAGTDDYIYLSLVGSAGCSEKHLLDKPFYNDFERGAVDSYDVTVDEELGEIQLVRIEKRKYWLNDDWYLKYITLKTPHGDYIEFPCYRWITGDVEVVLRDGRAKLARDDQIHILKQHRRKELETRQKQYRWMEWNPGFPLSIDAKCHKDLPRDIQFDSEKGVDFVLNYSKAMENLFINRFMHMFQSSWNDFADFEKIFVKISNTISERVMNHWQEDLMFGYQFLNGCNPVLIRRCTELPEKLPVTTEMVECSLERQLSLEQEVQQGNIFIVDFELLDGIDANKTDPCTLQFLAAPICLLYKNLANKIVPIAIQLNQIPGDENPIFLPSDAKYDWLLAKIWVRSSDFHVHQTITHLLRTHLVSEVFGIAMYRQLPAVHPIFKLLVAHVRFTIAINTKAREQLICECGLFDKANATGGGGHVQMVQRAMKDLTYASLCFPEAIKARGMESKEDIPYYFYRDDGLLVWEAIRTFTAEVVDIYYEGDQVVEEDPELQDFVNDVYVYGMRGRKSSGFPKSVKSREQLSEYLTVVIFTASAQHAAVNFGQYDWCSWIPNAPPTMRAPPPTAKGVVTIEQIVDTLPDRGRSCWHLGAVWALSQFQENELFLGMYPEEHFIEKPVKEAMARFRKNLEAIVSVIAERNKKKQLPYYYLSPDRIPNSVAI
quantity: pIC50
Lab note: report pIC50 as minus log10 of the concentration in molar units, number only.

Q. Sample O=c1c(O[C@@H]2O[C@H](CO)[C@@H](O)[C@H](O)[C@H]2O)c(-c2ccc(O)cc2)oc2cc(O)cc(O)c12 [Kaempferol-3-O-glucoside, Kaempferol 3-O-β-glucopyranoside] — what was its pIC50?
A. 5.20
